compounds and their reported viability at 48 h, 25 µM
# PROTOCOL_SUMMARY: in vitro
# ASSAY_CONDITIONS: human, hek293t cells
// return the numeric value with its unit appended

# COMPOUND, RESULT
rows = [
    ("C=CC(=O)Nc1c(C)cccc1SCC(=O)N(C)C", "78.8%"),
    ("Cc1cc(C)cc(OCCN(C)C(=O)CCl)c1", "0.538%"),
    ("C=CC(=O)N1CC(S(=O)(=O)N2CCOCC2)C1", "74%"),
    ("COCCNC(=O)C(C#N)=Cc1ccc(O)cc1", "110%"),
    ("COCCNC(=O)C(C#N)=Cc1cccc(O)c1", "121%"),
]

Turning to the following compound.
Q: Please look up its viability at 48 h, 25 µM: "O=C(CCl)N1CCN(S(=O)(=O)c2cccc([N+](=O)[O-])c2)CC1"
Result: 1.45%

Source of measurements: paper PMC11995724
